The origin of these recorded values is ChEMBL document CHEMBL1157539.

System: Plasmodium falciparum
Assay: GSK_TCMDC: Inhibition of Plasmodium falciparum 3D7 in whole red blood cells, using parasite LDH activity as an index of growth. Test compounds present at 2uM
Format: functional
metric name: Inhibition (%)
Quick reminder: number only, in %, skip the unit.

compound	Inhibition / %
Cc1cccc2c1NC(=O)/C2=N/NC(=S)N(C)C	96
CN1CCCN(Cc2cccc(-c3ccc(NC(=O)c4ccc(Cl)cc4)cc3)c2)CC1.O=C(O)C(F)(F)F	97
CC(C)CNCc1ccc(-c2cccc(CN(CCN(C)C)C(=O)NCCc3ccccc3)c2)cc1.O=C(O)C(F)(F)F	91
COCCn1c(SC(C)C(=O)Nc2cc(C(F)(F)F)ccc2Cl)nc2ccccc2c1=O (stereo not drawn)	97
CCOc1ccc(-c2cc3nc(C4CCNCC4)c(C(=O)Nc4ccc(C)cc4Cl)cn3n2)cc1.Cl	95

So, Fc1ccc2[nH]c(-c3cccc(-c4ccc(CN5CCC(CCN6CCCCC6)CC5)cc4)c3)nc2c1.O=C(O)C(F)(F)F ? Its Inhibition was 100

So, O=C(Nc1ccc(OCc2ccccc2)cc1)c1nc2ccccc2nc1Cl ? Its Inhibition was 96

So, Fc1ccc(-c2nc(NCc3cccc(C(F)(F)F)c3)nn2-c2cccc(C(F)(F)F)c2)cc1C(F)(F)F ? Its Inhibition was 90

So, COc1ccc(C2CCN(C#N)C2)cc1OC1CCCC1 (stereo not drawn) ? Its Inhibition was 100

So, CC1CNC(c2ccc(NC(=O)c3ccc(C(=O)Nc4ccc(C5=NC(C)CN5)cc4)cc3)cc2)=N1.CS(=O)(=O)O (stereo not drawn) ? Its Inhibition was 99

So, Cc1cccc2nc(-c3ccc(-c4cccc(NC(=O)c5cncn5C)c4)cc3)[nH]c12 ? Its Inhibition was 100

So, COc1ccc2[nH]c(C)cc(=NN=Cc3ccncc3)c2c1 ? Its Inhibition was 100

So, COc1cccc(CN2CCCN(Cc3cccc(NC(=O)c4ccc(-c5ccccc5)cc4)c3)CC2)c1.O=C(O)C(F)(F)F ? Its Inhibition was 86

So, O=C(CCOc1ccccc1)NCC1CCCO1 (stereo not drawn) ? Its Inhibition was 92

So, Cc1cc(N2CCCC2)nc(Nc2ccc(NC(=O)c3ccc4c(c3)OCO4)cc2)n1 ? Its Inhibition was 100

So, CCCC(CNCc1cccc(OC(F)(F)F)c1)CNc1cc(=O)c2ccccc2[nH]1 (stereo not drawn) ? Its Inhibition was 100

So, CCOc1ccc(Nc2cc(C)nc(Nc3ccc(OCC)cc3)n2)cc1 ? Its Inhibition was 100

So, COc1cc(OC)c2c(C)cc(NCCCN3CCOCC3)nc2c1 ? Its Inhibition was 99

So, C=CCc1cc(Cc2cnc(N)nc2N)cc(CCC)c1O ? Its Inhibition was 90

So, O=C(Nc1ccc(-c2nc3ccccc3[nH]2)cc1)c1cccc([N+](=O)[O-])c1 ? Its Inhibition was 100

So, COc1ccc(CNCCc2cccs2)cc1-c1ccc(S(=O)(=O)NCCN2CCCC2)s1.O=C(O)C(F)(F)F ? Its Inhibition was 99
